Hello, the source for this data is paper PMC8187944, in case you need it.

Tested on: HT-29 cells
Experiment: Anti-proliferative assay, standard CCK-8 method
Type: cell-based, human
Conditions: Homo sapiens, mean ± SD of at least three independent experiments, read-out: Proliferative inhibition (IC50, μM) HT-29
Binning scheme for IC50: low (below 6 µM), intermediate (6 µM to below 40 µM), high (40 µM or more)

[[record]]
compound = "O=C(Nc1ccc(Cl)c(C(F)(F)F)c1)Nc1ccc2ncnc(Nc3ccc(Br)cc3)c2c1"
system_tested = "HT-29 cells"
category = "low"

[[record]]
compound = "Cc1ccc(Nc2ncnc3ccc(NC(=O)Nc4ccc(F)cc4)cc23)cc1"
system_tested = "HT-29 cells"
category = "intermediate"

[[record]]
compound = "C#Cc1cccc(Nc2ncnc3cc(OCCOC)c(OCCOC)cc23)c1 [Erlotinib, erlotinib, reference compound]"
system_tested = "HT-29 cells"
category = "intermediate"

[[record]]
compound = "COc1ccc(NC(=O)Nc2ccc3ncnc(Nc4ccc(F)cc4)c3c2)cc1"
system_tested = "HT-29 cells"
category = "high"

[[record]]
compound = "O=C(Nc1ccccc1)Nc1ccc2ncnc(Nc3cccc(Br)c3)c2c1"
system_tested = "HT-29 cells"
category = "low"

[[record]]
compound = "O=C(Nc1ccc(Cl)c(C(F)(F)F)c1)Nc1ccc2ncnc(Nc3cccc(Br)c3)c2c1"
system_tested = "HT-29 cells"
category = "low"

[[record]]
compound = "Cc1cccc(Nc2ncnc3ccc(NC(=O)Nc4ccccc4)cc23)c1C"
system_tested = "HT-29 cells"
category = "high"

[[record]]
compound = "COc1ccc(NC(=O)Nc2ccc3ncnc(Nc4cccc(C)c4C)c3c2)cc1"
system_tested = "HT-29 cells"
category = "intermediate"

[[record]]
compound = "O=C(Nc1ccccc1)Nc1ccc2ncnc(Nc3ccc(F)cc3)c2c1"
system_tested = "HT-29 cells"
category = "high"

[[record]]
compound = "COc1ccc(NC(=O)Nc2ccc3ncnc(Nc4ccc(C)cc4)c3c2)cc1"
system_tested = "HT-29 cells"
category = "high"

[[record]]
compound = "COc1ccc(NC(=O)Nc2ccc3ncnc(Nc4ccc(Br)cc4)c3c2)cc1"
system_tested = "HT-29 cells"
category = "intermediate"

[[record]]
compound = "CNC(=O)c1cc(Oc2ccc(NC(=O)Nc3ccc(Cl)c(C(F)(F)F)c3)cc2)ccn1 [Sorafenib, sorafenib, reference compound]"
system_tested = "HT-29 cells"
category = "low"


====

Target: EGFR (Homo sapiens)
Construct: 2 μl (50 ng/ml) of EGFR kinase
Sequence (P00533 25-1210): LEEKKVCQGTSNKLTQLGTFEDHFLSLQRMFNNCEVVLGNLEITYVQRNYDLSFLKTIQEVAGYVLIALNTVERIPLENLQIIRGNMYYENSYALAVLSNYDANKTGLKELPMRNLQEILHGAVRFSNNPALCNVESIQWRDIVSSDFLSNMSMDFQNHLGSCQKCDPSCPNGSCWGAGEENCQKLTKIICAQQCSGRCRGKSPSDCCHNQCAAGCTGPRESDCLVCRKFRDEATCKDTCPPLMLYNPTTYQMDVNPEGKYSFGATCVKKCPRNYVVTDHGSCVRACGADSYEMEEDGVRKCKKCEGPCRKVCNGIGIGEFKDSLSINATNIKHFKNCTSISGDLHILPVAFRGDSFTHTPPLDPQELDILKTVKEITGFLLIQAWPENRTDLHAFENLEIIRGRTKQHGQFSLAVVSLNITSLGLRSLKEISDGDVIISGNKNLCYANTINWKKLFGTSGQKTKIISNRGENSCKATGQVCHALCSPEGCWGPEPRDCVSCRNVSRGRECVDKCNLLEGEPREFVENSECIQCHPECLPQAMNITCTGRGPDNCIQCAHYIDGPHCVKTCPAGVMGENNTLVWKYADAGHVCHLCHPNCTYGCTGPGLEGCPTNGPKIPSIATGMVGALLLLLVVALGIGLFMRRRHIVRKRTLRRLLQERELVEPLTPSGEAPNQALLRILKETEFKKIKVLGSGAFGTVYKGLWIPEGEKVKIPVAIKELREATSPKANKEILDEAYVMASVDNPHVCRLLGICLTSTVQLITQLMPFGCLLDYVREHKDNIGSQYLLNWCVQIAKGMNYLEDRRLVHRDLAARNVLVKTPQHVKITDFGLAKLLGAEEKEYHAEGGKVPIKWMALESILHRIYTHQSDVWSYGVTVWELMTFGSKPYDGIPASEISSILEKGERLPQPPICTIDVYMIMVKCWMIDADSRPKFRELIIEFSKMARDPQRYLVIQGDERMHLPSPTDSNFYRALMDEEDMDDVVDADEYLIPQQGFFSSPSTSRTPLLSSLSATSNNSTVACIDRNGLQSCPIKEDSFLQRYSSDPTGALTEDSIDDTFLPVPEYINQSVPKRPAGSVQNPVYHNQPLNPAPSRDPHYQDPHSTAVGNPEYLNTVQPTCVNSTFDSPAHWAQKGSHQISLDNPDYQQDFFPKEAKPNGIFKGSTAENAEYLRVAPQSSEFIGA
Test: EGFR kinase inhibition, ADP-Glo assay
Type: biochemical
Conditions: ADP-Glo; mean ± SD of at least two independent experiments; read-out: Enzymatic inhibition IC50 (nM) EGFR
I'd appreciate it if you marked entries Y when IC50 is lower than 60 nM and N when it is not.

[[record]]
compound_structure = "O=C(Nc1ccccc1)Nc1ccc2ncnc(Nc3ccc(Br)cc3F)c2c1"
category = "Y"

[[record]]
compound_structure = "COc1ccc(NC(=O)Nc2ccc3ncnc(Nc4ccc(Br)cc4)c3c2)cc1"
category = "N"

[[record]]
compound_structure = "O=C(Nc1ccccc1)Nc1ccc2ncnc(Nc3ccc(F)c(Cl)c3)c2c1"
category = "Y"

[[record]]
compound_structure = "O=C(Nc1ccc(Cl)c(C(F)(F)F)c1)Nc1ccc2ncnc(Nc3cccc(Br)c3)c2c1"
category = "Y"

[[record]]
compound_structure = "Cc1cccc(Nc2ncnc3ccc(NC(=O)Nc4ccccc4)cc23)c1C"
category = "Y"

[[record]]
compound_structure = "COc1ccc(NC(=O)Nc2ccc3ncnc(Nc4cccc(C)c4C)c3c2)cc1"
category = "Y"

[[record]]
compound_structure = "Cc1ccc(Nc2ncnc3ccc(NC(=O)Nc4ccc(F)cc4)cc23)cc1"
category = "N"

[[record]]
compound_structure = "O=C(Nc1ccccc1)Nc1ccc2ncnc(Nc3ccc(F)cc3)c2c1"
category = "Y"

[[record]]
compound_structure = "COc1ccc(NC(=O)Nc2ccc3ncnc(Nc4ccc(C)cc4)c3c2)cc1"
category = "N"

